The measurements presented in this section are drawn from patent US11208386B2.

# system_under_test: PAD2 (Homo sapiens, UniProt Q9Y2J8)
# Construct: made in house
# Sequence (Q9Y2J8 whole entry): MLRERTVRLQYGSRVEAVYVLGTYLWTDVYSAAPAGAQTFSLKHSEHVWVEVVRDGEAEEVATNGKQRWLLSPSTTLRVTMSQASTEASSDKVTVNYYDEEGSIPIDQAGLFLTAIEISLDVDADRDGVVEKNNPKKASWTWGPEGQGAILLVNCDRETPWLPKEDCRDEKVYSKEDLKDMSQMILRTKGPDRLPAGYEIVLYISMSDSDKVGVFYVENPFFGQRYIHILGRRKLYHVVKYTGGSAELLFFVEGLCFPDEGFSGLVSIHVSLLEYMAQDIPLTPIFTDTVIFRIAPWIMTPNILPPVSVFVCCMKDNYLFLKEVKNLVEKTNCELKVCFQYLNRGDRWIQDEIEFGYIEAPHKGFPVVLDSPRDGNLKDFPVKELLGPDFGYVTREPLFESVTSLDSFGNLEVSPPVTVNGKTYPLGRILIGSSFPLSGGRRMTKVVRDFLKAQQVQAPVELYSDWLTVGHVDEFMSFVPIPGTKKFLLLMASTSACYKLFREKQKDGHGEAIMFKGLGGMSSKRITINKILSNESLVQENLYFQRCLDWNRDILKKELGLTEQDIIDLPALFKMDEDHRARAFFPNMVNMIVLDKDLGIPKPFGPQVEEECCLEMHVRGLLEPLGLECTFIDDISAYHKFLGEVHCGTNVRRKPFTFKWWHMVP
# test_name: Inactivation kinetics, PAD2
# Format: biochemical
# recorded_conditions: kinact/KI relative to least inhibited isozyme (1.0)
measured_parameter: Fold PAD2 Selectivity (fold)

Example entries begin here.
INSERT INTO results (smiles_text, meas_value) VALUES
  ('CCOc1cccc2c1nc([C@H](CCCNC(=N)CCl)NC(=O)c1cccc3c1C(=O)NC3)n2C', 30),
  ('COc1cccc2c1nc([C@H](CCCNC(=N)CCl)NC(=O)c1ccc(-c3ccccc3)cc1)n2C', 5.1);

[a] N=C(CF)NCCC[C@H](NC(=O)c1ccc(-c2ccc(F)cc2)cc1)c1nc2ccccc2[nH]1
[b] CCN1Cc2cccc(C(=O)N[C@@H](CCCNC(=N)CCl)c3nc4c(OC)cccc4n3C)c2C1=O
Field: lower Fold PAD2 Selectivity | Options: a / b Answer by stating the label of the chosen item.
a
(a: 1.2 fold, b: 5.0 fold)

###

# system_under_test: PAD4 (Homo sapiens, UniProt Q9UM07)
# Construct: made in house
# Sequence (Q9UM07 whole entry): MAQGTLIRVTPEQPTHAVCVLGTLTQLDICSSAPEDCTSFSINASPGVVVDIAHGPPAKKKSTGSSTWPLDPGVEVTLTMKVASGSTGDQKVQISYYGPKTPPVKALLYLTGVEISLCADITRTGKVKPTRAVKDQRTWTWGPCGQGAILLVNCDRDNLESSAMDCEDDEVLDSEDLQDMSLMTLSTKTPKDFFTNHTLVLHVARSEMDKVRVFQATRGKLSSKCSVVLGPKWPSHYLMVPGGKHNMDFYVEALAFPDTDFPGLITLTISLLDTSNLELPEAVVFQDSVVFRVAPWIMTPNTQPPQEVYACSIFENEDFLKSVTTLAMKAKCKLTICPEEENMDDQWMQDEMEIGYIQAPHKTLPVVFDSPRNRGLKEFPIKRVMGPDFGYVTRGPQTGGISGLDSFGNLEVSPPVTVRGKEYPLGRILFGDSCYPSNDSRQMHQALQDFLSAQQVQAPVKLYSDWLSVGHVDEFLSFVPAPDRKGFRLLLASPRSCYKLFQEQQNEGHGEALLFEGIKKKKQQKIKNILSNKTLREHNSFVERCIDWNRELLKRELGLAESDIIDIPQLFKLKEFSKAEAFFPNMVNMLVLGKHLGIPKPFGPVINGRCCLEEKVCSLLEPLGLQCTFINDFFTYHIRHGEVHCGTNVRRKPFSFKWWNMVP
# test_name: Inactivation kinetics, PAD4
# Format: biochemical
# recorded_conditions: kinact/KI relative to least inhibited isozyme (1.0)
measured_parameter: Fold PAD4 Selectivity (fold)

Example entries begin here.
INSERT INTO measurements (compound, system_under_test, meas_value) VALUES
  ('CCN1Cc2cccc(C(=O)N[C@@H](CCCNC(=N)CCl)c3nc4cc(OC)ccc4n3C)c2C1=O [Compound 8p]', 'PAD4 (Homo sapiens, UniProt Q9UM07)', 1.0),
  ('CCN1Cc2cccc(C(=O)N[C@@H](CCCNC(=N)CCl)c3nc4ccccc4n3C)c2C1=O [Compound 8d]', 'PAD4 (Homo sapiens, UniProt Q9UM07)', 1.2),
  ('COc1ccc2c(c1)nc([C@H](CCCNC(=N)CF)NC(=O)c1cccc3c1C(=O)NC3)n2C [Compound 7o]', 'PAD4 (Homo sapiens, UniProt Q9UM07)', 1.2),
  ('CCN1Cc2cccc(C(=O)N[C@@H](CCCNC(=N)CF)c3nc4c(OC)cccc4n3CC)c2C1=O [Compound 8u]', 'PAD4 (Homo sapiens, UniProt Q9UM07)', 1.0),
  ('CCn1c([C@H](CCCNC(=N)CCl)NC(=O)c2ccc(-c3ccccc3)cc2)nc2ccccc21 [Compound 5j]', 'PAD4 (Homo sapiens, UniProt Q9UM07)', 1.0),
  ('N=C(CF)NCCC[C@H](NC(=O)c1ccc(-c2ccccc2)cc1)c1nc2ccccc2[nH]1 [Compound 5e]', 'PAD4 (Homo sapiens, UniProt Q9UM07)', 4.2);

[a] COc1ccc2c(c1)nc([C@H](CCCNC(=N)CCl)NC(=O)c1cccc3c1C(=O)NC3)n2C [Compound 7p]
[b] N=C(CF)NCCC[C@H](NC(=O)c1ccc2ccccc2c1)c1nc2ccccc2[nH]1 [Compound 5c]
Field: lower Fold PAD4 Selectivity | Options: a / b Answer by stating the label of the chosen item.
a

###

# system_under_test: PAD4 (Homo sapiens, UniProt Q9UM07)
# Construct: made in house
# test_name: Inactivation kinetics, PAD4
# Format: biochemical
# recorded_conditions: a: single kobs determined; b: from a linear fit
measured_parameter: kinact/KI (M⁻¹ s⁻¹)

Example entries begin here.
INSERT INTO measurements (smiles_text, measured_parameter, unit_abbreviation, meas_value) VALUES
  ('COc1ccc2[nH]c([C@H](CCCNC(=N)CCl)NC(=O)c3cccc4c3C(=O)NC4)nc2c1', 'kinact/KI', 'M⁻¹ s⁻¹', 630),
  ('CCN1Cc2cccc(C(=O)N[C@@H](CCCNC(=N)CF)c3nc4c(OC)cccc4n3CC)c2C1=O', 'kinact/KI', 'M⁻¹ s⁻¹', 46.7),
  ('N=C(CF)NCCC[C@H](NC(=O)c1ccc(-c2ccc(F)cc2)cc1)c1nc2ccccc2[nH]1', 'kinact/KI', 'M⁻¹ s⁻¹', 53.3),
  ('N=C(CCl)NCCC[C@H](NC(=O)c1ccccc1C(=O)O)c1nc2ccccc2[nH]1', 'kinact/KI', 'M⁻¹ s⁻¹', 517),
  ('COc1cccc2[nH]c([C@H](CCCNC(=N)CF)NC(=O)c3cccc4c3C(=O)NC4)nc12', 'kinact/KI', 'M⁻¹ s⁻¹', 36.3);

[a] CCn1c([C@H](CCCNC(=N)CCl)NC(=O)c2cccc3c2C(=O)NC3)nc2c(OC)cccc21
[b] N=C(CCl)NCCC[C@H](NC(=O)c1cccc2c1C(=O)NC2)c1nc2ccccc2[nH]1
Select the item with the higher value of kinact/KI from the options a and b listed. Answer by stating the label of the chosen item.
b

[a] Cn1c([C@H](CCCNC(=N)CF)NC(=O)c2ccccc2C(=O)OC(C)(C)C)nc2ccccc21
[b] Cn1c([C@H](CCCNC(=N)CF)NC(=O)c2ccc(-c3ccccc3)cc2)nc2ccccc21
[c] Cn1c([C@H](CCCNC(=N)CCl)NC(=O)c2ccccc2C(=O)O)nc2ccccc21
[d] COc1ccc2c(c1)nc([C@H](CCCNC(=N)CF)NC(=O)c1cccc3c1C(=O)NC3)n2C
Please produce an ascending ranking of these compounds based on kinact/KI. Output spec: labels arranged per the requested ranking.
b, d, a, c
